# Compound, logP
records = [
    ("CCCCOC", 1.66),
    ("O=[N+]([O-])c1ccncc1", 0.33),
    ("CC(C)C(C#N)c1ccccc1 (stereo not given)", 2.33),
    ("c1cncc(CN2CCCC2)c1", 1.1),
    ("CN(C)c1ccc([N+](=O)[O-])cc1", 2.27),
    ("CNC(=O)C1C(C)CC2C3CCC4=CC(=O)C=CC4(C)C3(F)C(O)CC21C (stereo not given)", 1.54),
    ("CC(=O)c1ccsc1", 1.24),
    ("CNC(=S)NCc1ccccc1", 1.35),
    ("C=CCN1CC[C@]23c4c5ccc(O)c4O[C@H]2[C@@H](O)C=C[C@H]3[C@H]1C5", 1.86),
    ("O=C(O)c1ccccc1Cl", 2.05),
    ("O=C(O)CCCCCC(=O)O", 0.61),
    ("O=C(O)C(c1ccc(-c2ccccc2)cc1)C(O)c1cccc(F)c1 (stereo not given)", 3.31),
    ("CCOCC1CO1 (stereo not given)", 0.36),
    ("Clc1ccc(-c2ccccc2)cc1", 4.61),
    ("COc1ccccc1O", 1.32),
]
